Where these numbers come from: paper PMC8945686

Test: In vitro safety/cell viability MTT assay on normal RPE1 cells
Format: cell-based, human
Details: human, RPE1 cells (noncancerous); normal RPE1 cells, MTT, 100 p.p.m (μg/mL)
Form field: viability at 48 h, 100 p.p.m (μg/mL) (one value per entry).
Report as a plain number; the unit % is understood.

Example compounds with recorded viability at 48 h, 100 p.p.m (μg/mL):
CC(=O)Nc1ccc(C(=O)C=C2C(=O)Nc3ccc(S(=O)(=O)N4CCCCC4)cc32)cc1
66.4
CCOC(=O)/C(C#N)=C1\C(=O)Nc2ccc(S(=O)(=O)N3CCCCC3)cc21
4.4
CC(=O)Nc1cccc(C(=O)C=C2C(=O)Nc3ccc(S(=O)(=O)N4CCCCC4)cc32)c1
80.7
Cc1ccc(C(=O)/C=C2\C(=O)Nc3ccc(S(=O)(=O)N4CCCCC4)cc32)cc1
0
O=C1Nc2ccc(S(=O)(=O)N3CCCCC3)cc2/C1=C/C(=O)c1ccc(O)cc1
0

From here, focus on the item given below.
Query: # input compound: Cc1ccc(C(=O)CC2(O)C(=O)Nc3ccc(S(=O)(=O)N4CCCCC4)cc32)cc1 (stereo not drawn) ; wanted: its viability at 48 h, 100 p.p.m (μg/mL)
Response: 74

###

Necrosis listing for selected compounds.
Test system: HepG2 cells
Experiment: Annexin V/FITC-PI apoptosis assay
Type: cell-based, human
Settings: HepG2, IC50 of the compound, 24 h (method says 48 h)
Note: unit % is implicit; provide only the numeric part.

CC(=O)Nc1cccc(C(=O)C=C2C(=O)Nc3ccc(S(=O)(=O)N4CCCCC4)cc32)c1
11.06
COc1cccc2c1C(=O)c1c(O)c3c(c(O)c1C2=O)C[C@@](O)(C(=O)CO)C[C@@H]3O[C@H]1C[C@H](N)[C@H](O)[C@H](C)O1 [Doxorubicin, reference compound]
14.26
Cc1ccc(C(=O)CC2(O)C(=O)Nc3ccc(S(=O)(=O)N4CCCCC4)cc32)cc1 (stereo not shown)
13.15

Now look at this one.
Query: # value lookup — system HepG2 cells, readout Necrosis, item CC(=O)Nc1ccc(C(=O)C=C2C(=O)Nc3ccc(S(=O)(=O)N4CCCCC4)cc32)cc1
Response: 9.41

###

Test system: mice
Test: In vivo acute (14-day) oral toxicity study
Conditions: 14 days after single dose, compounds 250 mg/kg oral, doxorubicin 15 mg/kg I.P
measured_property: S.Urea

Solved entries (count: 3):
Cc1ccc(C(=O)/C=C2\C(=O)Nc3ccc(S(=O)(=O)N4CCCCC4)cc32)cc1
55.10 ± 2.96 ^^ mg/dL
COc1cccc2c1C(=O)c1c(O)c3c(c(O)c1C2=O)C[C@@](O)(C(=O)CO)C[C@@H]3O[C@H]1C[C@H](N)[C@H](O)[C@H](C)O1 [Doxorubicin, reference compound]
83.27 ± 0.95 *^,# mg/dL
CC(=O)Nc1cccc(C(=O)C=C2C(=O)Nc3ccc(S(=O)(=O)N4CCCCC4)cc32)c1
55.76 ± 5.64 ^^ mg/dL

Query: // returns reported S.Urea for input CC(=O)Nc1ccc(C(=O)C=C2C(=O)Nc3ccc(S(=O)(=O)N4CCCCC4)cc32)cc1
Response: 62.60 ± 3.64 ^^ mg/dL

Query: Then O=C1Nc2ccc(S(=O)(=O)N3CCCCC3)cc2/C1=C/C(=O)c1ccc(O)cc1 ?
Response: 48.18 ± 0.53 ^^ mg/dL

Query: How about this molecule: CCOC(=O)/C(C#N)=C1\C(=O)Nc2ccc(S(=O)(=O)N3CCCCC3)cc21
Response: 52.24 ± 0.65 ^^ mg/dL

Query: Field entry: Cc1ccc(C(=O)CC2(O)C(=O)Nc3ccc(S(=O)(=O)N4CCCCC4)cc32)cc1 (stereo not shown)
Response: 51.25 ± 0.36 ^^ mg/dL
